FYI, the data here is from the RepoRT retention time repository (doi:10.1016/j.foodchem.2015.11.070).

Recorded LC retention time values for a group of molecules are listed next.
# test description: Thermo Scientific Hypersil GOLD aQ, 100 × 2.1 mm, 1.9 µm, 30 °C, 0.3 mL/min, estimated dead time 0.73 min; A: water + 0.01% formic acid + 4 mM ammonium formate; B: methanol + 0.01% formic acid + 4 mM ammonium formate; gradient (min/%B) 0/5 1/5 8/100 12/100
# conditions: stereoisomer not certain
Enter your answer as a number in min; do not include the unit.

| molecule | LC retention time / min |
| --- | --- |
| CC(C)N(Cc1ccccc1)C(=O)C(C)(C)C | 9.96 |
| COCC(=O)N(c1c(C)cccc1C)C(C)C(=O)OC (stereo unspecified) | 9.04 |
| CCOP(=S)(OCC)Oc1cc(C)nc(N(CC)CC)n1 | 10.7 |
| COP(=O)(NC(C)=O)SC (stereo unspecified) | 1.58 |
| Cc1cc(C)nc(Nc2ccccc2)n1 | 9.6 |

Consider the record given below.
So, CCC1CCCC(OC2CCC(N(C)C)C(C)O2)C(C)C(=O)C2=CC3C(C=CC4CC(OC5OC(C)C(OC)C(OC)C5OC)CC43)C2CC(=O)O1 (stereo unspecified) ? Its LC retention time was 10.3
